Assay: NCI Yeast Anticancer Drug Screen. Data for the bub3 strain (AID 167)
Conditions: S. cerevisiae bub3 mutant strain, at 11.0 µM, active compounds read high
The panel holds about 79,000 compounds, 15% with a hit somewhere; the sample as a whole holds those more often.

smilesRepresentation: CCOc1ccc(C(=O)CCC(=O)O)c(C)c1
growth inhibition / %: -1
--
smilesRepresentation: COc1ccc(N=N/C(=N\NC(=O)c2cc(Br)ccc2O)c2ccc(N(CCC#N)CCC#N)cc2OC)cc1
growth inhibition / %: 16
--
smilesRepresentation: Nc1ccc(S(=O)(=O)Nc2ccc(Nc3c4ccccc4nc4ccccc34)cc2)cc1
growth inhibition / %: 15
--
smilesRepresentation: O=C1c2ccccc2C(=O)c2cc(S(=O)(=O)Nc3ccccc3)ccc21
growth inhibition / %: 24
--
smilesRepresentation: OCCNCCOc1ccc(/C(=C(/Cl)c2ccccc2)c2ccccc2)cc1
growth inhibition / %: 13
--
smilesRepresentation: O=Nn1c2ccccc2c2cc([N+](=O)[O-])ccc21
growth inhibition / %: 55
--
smilesRepresentation: CCOC(=O)c1csc(Br)n1
growth inhibition / %: -6
--
smilesRepresentation: Cc1ccc(N=Nc2ccc(O)c(C)c2)cc1
growth inhibition / %: 95
--
smilesRepresentation: Oc1ccc(C=Nc2ccccc2O)cc1
growth inhibition / %: 81
--
smilesRepresentation: CCCCCCCCCCCc1nc(N)n[nH]1
growth inhibition / %: 4
--
smilesRepresentation: O=C(CCc1ccccc1)ON1C(=S)C(c2ccccc2)(c2ccccc2)N=C1Sc1ccccc1
growth inhibition / %: -5
--
smilesRepresentation: COc1ccc(C(C#N)=C2C=CC(=NO)C=C2)cc1
growth inhibition / %: 22
--
smilesRepresentation: Oc1ccccc1N=Cc1ccc(Cl)cc1
growth inhibition / %: 70
--
smilesRepresentation: N#C/C(=C/c1c(Cl)cccc1Cl)C(N)=O
growth inhibition / %: 14

====

Test: NCI Yeast Anticancer Drug Screen. Data for the sgs1 strain (AID 173);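 further: 0% = growth of vehicle-only control cultures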
Conditions: S. cerevisiae sgs1 mutant, at 11.0 µM, active compounds read high
About 79,000 compounds went through this panel and 15% of them were active in at least one assay; those are over-represented in the sample as a whole.
measurementLabel: growth inhibition (%)

compound: CCN(CC)CCNC(=O)c1nn(-c2ccc(Cl)cc2)c2c1CCc1cc(OC)ccc1-2
measurementLabel: growth inhibition
unitsText: %
readoutValue: 8

compound: CCCCCC#CCOC(=O)C(=[N+]=[N-])P(=O)(c1ccccc1)c1ccccc1
measurementLabel: growth inhibition
unitsText: %
readoutValue: 15

compound: O=Nn1c2ccccc2c2ccccc21
measurementLabel: growth inhibition
unitsText: %
readoutValue: 10

compound: CC1OC(OC2CCCc3c(O)c4c(c(O)c32)C(=O)c2ccccc2C4=O)CC(N)C1O (stereo unspecified)
measurementLabel: growth inhibition
unitsText: %
readoutValue: 34

compound: N#C/C(=C/c1c(Cl)cccc1Cl)C(N)=O
measurementLabel: growth inhibition
unitsText: %
readoutValue: 21

compound: Clc1cc(Cc2ccc(N=C/C=C/c3ccccc3)c(Cl)c2)ccc1N=C/C=C\c1ccccc1
measurementLabel: growth inhibition
unitsText: %
readoutValue: 8

compound: O=C1C=CC(=O)N1c1ccc(I)cc1
measurementLabel: growth inhibition
unitsText: %
readoutValue: 100

compound: Cc1ccc(S(=O)(=O)Nc2ccc3c(c2)C(O)c2ccccc2-3)cc1 (stereo unspecified)
measurementLabel: growth inhibition
unitsText: %
readoutValue: 26

compound: O=Nc1ccc(Nc2ccccc2)cc1
measurementLabel: growth inhibition
unitsText: %
readoutValue: -28

compound: CC(=O)[C@]1(O)Cc2c(O)c3c(c(O)c2[C@@H](OC2CC(N)C(O)C(C)O2)C1)C(=O)c1c(OCc2ccccc2)cccc1C3=O (stereo partly specified)
measurementLabel: growth inhibition
unitsText: %
readoutValue: 22

compound: C=C(CCCO)[C@@H]1CC[C@@](C)(O)[C@H]1C
measurementLabel: growth inhibition
unitsText: %
readoutValue: -31

====

Assay: NCI Yeast Anticancer Drug Screen. Data for the rad18 strain (AID 177)
Conditions: S. cerevisiae rad18 mutant growth inhibition; at 3.7 µM; active compounds read high
About 79,000 compounds went through this panel and 15% of them were active in at least one assay; those are over-represented in the sample as a whole. Residues, ends and D or L forms follow the SMILES beside them. *: point of attachment. CH2Cl = ClC*

compound: O=C1c2ccccc2CCC1(Br)Br
unitsText: %
growth inhibition: 23

compound: CCOC(=O)c1csc(Br)n1
unitsText: %
growth inhibition: -3

compound: C=C(C)[C@@H]1CCc2c(O)c(O)c(=O)cc(C)c2C1
unitsText: %
growth inhibition: 34

compound: CC(=O)NC(CC(C)C)C(=O)NC(Cc1ccccc1)C(=O)CCl (stereo not drawn) (Ac-Leu-Phe-CH2Cl; configuration not given here)
unitsText: %
growth inhibition: -2

compound: CC(=O)c1cc2c(Cl)cc(Cl)cc2oc1=O
unitsText: %
growth inhibition: -3

compound: COc1ccc(N=Nc2ccc3oc(=O)c(C(=O)Nc4ccccc4)cc3c2)cc1
unitsText: %
growth inhibition: 5

compound: CCN(CC)CC(O)C1CCC(c2ccccc2)CC1 (stereo not drawn)
unitsText: %
growth inhibition: 12

compound: NCc1c(O)ccc2ccccc12
unitsText: %
growth inhibition: -6

====

Assay: NCI Yeast Anticancer Drug Screen. Data for the mec2-1 strain (AID 157)
Conditions: S. cerevisiae mec2-1 strain, at 50.0 µM (retest, dose inferred, filed as 5.0), active compounds read high
This is part of a sample that, as a whole, favours compounds with a hit. Of some 79,000 tested, about 15% had one in any assay.
Classify by measured growth inhibition: satisfied if it is equal to or exceeds 20%, not satisfied if it is smaller.

compound: O=C1OC2C(O)COC2(OCc2c[nH]c3ccccc23)C1O (stereo unspecified) (tested in a mixture with another compound)
label: satisfied
//
compound: N#CC(=C1C=CC(=NO)C=C1)c1ccccc1
label: satisfied
//
compound: Nc1ccc2c(c1)sc1ccccc12
label: not satisfied
//
compound: S=C1SCN(CCc2ccccc2)CN1CCc1ccccc1
label: satisfied
//
compound: O=S(=O)(c1cc(Cl)ccc1O)c1cc(Cl)ccc1O
label: satisfied
//
compound: Cc1ccc(Nc2c3c(c(C#N)c4nc5ccccc5n24)CCCC3)cc1
label: satisfied

====

Assay: NCI Yeast Anticancer Drug Screen. Data for the mgt1 strain (AID 153)
Conditions: S. cerevisiae mgt1 mutant growth inhibition; at 100.0 µM
About 79,000 compounds went through this panel and 15% of them were active in at least one assay; those are over-represented in the sample as a whole. Calls of active or inactive are those of the source. No stated cut-off is given here; in the data, active means growth inhibition above about 70%; inactive means the rest.
Labels: active, inactive

compound: Cn1c2nc3ccccc3c-2nc2ccccc21
label: active

compound: N#C/C(=C/N1C(=O)/C(=C/c2ccc([N+](=O)[O-])cc2)SC1=S)c1nc2ccccc2s1
label: inactive

compound: N#C/C(=C/c1c(Cl)cccc1Cl)C(N)=O
label: active

compound: CO[C@@]12[C@H](COC(N)=O)C3=C(C(=O)C(C)=C(N)C3=O)N1C[C@@H]1N[C@@H]12
label: active

compound: CC1=CCC(C(C)(C)c2ccc(O)cc2)CC1 (stereo unspecified)
label: active

compound: Cc1ccc(CNc2ccc(Br)cc2)cc1
label: active

====

Assay: NCI Yeast Anticancer Drug Screen. Data for the rad52 strain (AID 147);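 further: 0% = growth of vehicle-treated control cultures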
Details: S. cerevisiae rad52 mutant growth inhibition; at 11.0 µM; active compounds read high
Experimental: Growth inhibition of yeast strains with defined genetic alterations is measured as a screen for potential anti-cancer activity. Selected strains with alterations in DNA damage repair or cell cycle control were exposed to compounds and growth inhibition was measured relative to vehicle treated controls. The strain used in this assay is rad52
The panel holds about 79,000 compounds, 15% with a hit somewhere; the sample as a whole holds those more often.
Classify on growth inhibition using Low = under 20%, Medium = from 20% up to 70%, High = 70% and over

molecule: O=Nc1ccc(Nc2ccccc2)cc1
label: Low

molecule: Cc1ccc(Nc2c3c(c(C#N)c4nc5ccccc5n24)CCCC3)cc1
label: Medium

molecule: CCN(CC)CC(O)c1cc(-c2ccc(Cl)cc2)nc2c(-c3ccccc3)cccc12 (stereo unspecified)
label: High

molecule: Cc1c(-c2ccccc2)[nH]c2ccccc12
label: Low

molecule: O=[N+]([O-])c1cc(S(=O)(=O)Nc2ccccc2)ccc1Cl
label: Low

molecule: COc1ccc2oc(-c3ccc(Cl)cc3)c(N3CCN(C)CC3)c2c1
label: High

molecule: CCCCCCCCCCCCCCCCNC(=O)/C(=C\c1ccc(Cl)c(Cl)c1)NC(=O)c1ccccc1
label: Low

molecule: Cc1c2cc[n+](CCN3CCCCC3)cc2c(C)c2c1[nH]c1ccc(O)cc12
label: High

molecule: CN(N=O)c1ccc(/C=C/c2ccnc3ccccc23)cc1
label: Medium

molecule: COc1ccc(N2CN(C)CSC2=S)cc1
label: Low

====

Assay: NCI Yeast Anticancer Drug Screen. Data for the sgs1 strain (AID 173);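 further: 0% = growth of vehicle-only control cultures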
Details: S. cerevisiae sgs1 mutant, at 1.2 µM, active compounds read high
This is part of a sample that, as a whole, favours compounds with a hit. Of some 79,000 tested, about 15% had one in any assay.
# growth inhibition annotations
measurementLabel: growth inhibition (%)

compound: Clc1c(Cl)c(Cl)c2c(nnn2C2CCCO2)c1Cl (centres undefined)
readoutValue: -30
--
compound: CN(N=O)c1ccc(/C=C/c2ccnc3ccccc23)cc1
readoutValue: -2
--
compound: CCN(CC)CC(O)c1cc(-c2ccc(Cl)cc2)nc2c(-c3ccccc3)cccc12 (centres undefined)
readoutValue: -1
--
compound: NCc1c(O)ccc2ccccc12
readoutValue: -10
--
compound: Cc1ccc(S(=O)(=O)N/N=C/C2(c3ccccc3)c3ccccc3-c3ccccc32)cc1
readoutValue: 16
--
compound: CCOC(=O)C(NC(=O)CC)(N1CCN(c2cc3c(cc2F)c(=O)c(C(=O)O)cn3C2CC2)CC1)C(F)(F)F (centres undefined)
readoutValue: 0
--
compound: Cc1ccc2occ/c(=N\Nc3ccccc3)c2c1
readoutValue: -1
--
compound: CCOC(=O)[C@]1(Br)CC[C@@]1(Br)C(=O)OCC
readoutValue: -27
--
compound: CN(C)c1ccc(/C=C/c2ccnc3ccccc23)cc1N
readoutValue: -3
--
compound: CC1=CCCC2C1(C)CCC(C)C2(C)Cc1cc(O)ccc1O (centres undefined)
readoutValue: 4
--
compound: COC(=O)c1oc([N+](=O)[O-])c(Cl)c1Cl
readoutValue: 82
--
compound: O=Cc1coc2ccccc2c1=O
readoutValue: 0
--
compound: N#CC(=C1C=CC(=NO)C=C1)c1ccccc1
readoutValue: 9
--
compound: Nc1nc(F)nc2c1ncn2C1OC(COP(=O)(O)O)C(O)C1O (centres undefined)
readoutValue: 18
--
compound: CCOC(=O)CNC(=O)c1[nH]cnc1/N=N/N(C)C
readoutValue: 10
--
compound: O=C(/C=C/c1cccc(Br)c1)c1ccc(Cl)cc1
readoutValue: -67
--
compound: CCOC(=O)Nc1ccc2c(c1)Cc1ccccc1-2
readoutValue: -18
--
compound: Cc1cc(C)c(N2C(=O)CC(Sc3ccccc3N)C2=O)c(C)c1 (centres undefined)
readoutValue: -37
--
compound: CN(N=O)C(=O)N[C@@H](C=O)[C@@H](O)[C@H](O)[C@H](O)CO
readoutValue: 0
--
compound: CC1=CC2C(C(C)C)CC1C1C(=O)OC(=O)C21 (centres undefined)
readoutValue: -14
--
compound: COc1cccc(C(c2cc3c(cc2O)OCO3)N2CCOCC2)c1OC (centres undefined)
readoutValue: -6
--
compound: Clc1cc(-c2ccccc2)nc2ccccc12
readoutValue: -9
--
compound: N#C/C(=C/N1C(=O)/C(=C/c2ccc([N+](=O)[O-])cc2)SC1=S)c1nc2ccccc2s1
readoutValue: 11
--
compound: Cc1cccc2c1N=C(C(F)(F)F)CC2=O
readoutValue: 1
--
compound: CC[C@@]1(OC(=O)CN(C)C)C(=O)OCc2c1cc1n(c2=O)Cc2cc3c(N)cccc3nc2-1
readoutValue: 0
--
compound: CSc1s[s+]c(SC)c1-c1ccccc1
readoutValue: -20
--
compound: Cc1ccc(I)cc1N=C=S
readoutValue: 6
--
compound: Oc1ccc(Br)cc1C=NC1CCCCC1
readoutValue: 7
--
compound: O=C1C=CC(=O)N1c1ccc2c(c1)OCO2
readoutValue: 15
--
compound: CCOc1ccc(C(=O)CCC(=O)O)c(C)c1
readoutValue: 0
--
compound: Cc1cccc(/C=N/NC(=S)N(C)CCc2ccccn2)n1
readoutValue: 97
--
compound: Cc1nc2c(ncn2CCO)c(=O)[nH]1
readoutValue: 2
--
compound: COc1ccc(SCc2cc(OC)ccc2OC)cc1
readoutValue: -2
--
compound: COC(=O)c1n[nH]c(C)c1N=NN(C)CCC#N
readoutValue: 15
--
compound: N#C/C(=C\c1ccccc1)c1ccccc1F
readoutValue: -1
--
compound: BrCc1ccccc1C(c1ccccc1)c1ccccc1
readoutValue: 9
--
compound: COc1ccc(N2CN(C)CSC2=S)cc1
readoutValue: -43
--
compound: COC(=O)c1ccc2c(c1)Cc1ccccc1-2
readoutValue: -3
--
compound: O=C(Nc1ccc2c(c1)Cc1c-2ccc([N+](=O)[O-])c1F)C(F)(F)F
readoutValue: 1
--
compound: CC(=O)C1=C(O)C2(C)c3c(O)c(C)c(O)c(C(C)=O)c3OC2(Sc2ccccc2)CC1=O (centres undefined)
readoutValue: 20
--
compound: CN(NC(=O)/C(=C/c1ccc(O)cc1)NC(=O)c1ccccc1)c1ccnc2cc(Cl)ccc12
readoutValue: 2
--
compound: CNc1nc(C)nc2c1cnn2-c1ccc([N+](=O)[O-])cc1
readoutValue: 5
--
compound: COC(=O)c1cccc(C)c1C(=O)c1c(C)cc(C)cc1C
readoutValue: 1
--
compound: N#Cc1sc2c(c1OC(=O)c1ccco1)c(=O)n(-c1ccccc1)c(=S)n2-c1ccccc1
readoutValue: 0
--
compound: NNC(=S)Nc1cccc(Cl)c1
readoutValue: -18
--
compound: N#CC(=S)Nc1cccc(Cl)c1
readoutValue: 2
--
compound: O=c1ccc(N=Nc2ccccc2)ccc1O
readoutValue: 4
--
compound: COCCCN(Cc1cc(OC)c(OC)c(OC)c1)C(=S)Nc1cccc(Cl)c1
readoutValue: -20
--
compound: O=C1c2ccccc2C(=O)c2cc(S(=O)(=O)Nc3ccccc3)ccc21
readoutValue: 2
